Origin of measurements: patent US20250353864A1

- Target System: EGFR (D770_N771insNPG) (Homo sapiens (Human), UniProt P00533, INS770NPG)
- Sequence (P00533 other isoform, or with tags, fused parts or gaps del 1-668/ins NPG behind 770 limits assumed): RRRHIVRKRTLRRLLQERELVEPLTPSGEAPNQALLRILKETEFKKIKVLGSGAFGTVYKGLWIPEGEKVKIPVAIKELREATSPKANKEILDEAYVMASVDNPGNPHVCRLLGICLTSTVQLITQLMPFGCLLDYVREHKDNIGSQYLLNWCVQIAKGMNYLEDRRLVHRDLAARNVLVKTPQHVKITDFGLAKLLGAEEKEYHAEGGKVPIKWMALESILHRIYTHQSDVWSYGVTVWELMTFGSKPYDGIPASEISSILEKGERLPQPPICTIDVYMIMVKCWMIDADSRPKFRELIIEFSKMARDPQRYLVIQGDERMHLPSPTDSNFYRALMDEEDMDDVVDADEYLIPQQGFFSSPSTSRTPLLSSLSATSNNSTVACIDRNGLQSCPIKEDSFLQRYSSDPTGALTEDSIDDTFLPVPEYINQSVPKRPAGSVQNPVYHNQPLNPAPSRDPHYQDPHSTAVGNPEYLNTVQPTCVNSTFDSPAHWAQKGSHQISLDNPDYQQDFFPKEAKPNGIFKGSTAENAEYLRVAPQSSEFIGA
- Run Description: HotSpot radiometric kinase assay, EGFR (D770_N771insNPG)
- Details: 10 μM ATP, read-out: EGFR (Δ770_N771insNPG) IC50
pIC50: −log10 of the molar value.
Classification field: enter YES for pIC50 values not below 8, NO for values below it.

Is the recorded value of pIC50 equal to or greater than 8 for this compound? `CCN1Cc2c(c(OC(C)C)nn2CC(C)=O)/C=C/c2n[nH]c3ccc(cc23)-c2cnn(C)c2O[C@@H](C)C1` NO

Is the recorded value of pIC50 equal to or greater than 8 for this compound? `Cc1c2c(nn1C)CN(C)CCOc1c(cnn1C)-c1ccc3[nH]nc(c3c1)/C=C/2` NO

Continuing:
Is the recorded value of pIC50 equal to or greater than 8 for this compound? Cc1c2c(nn1C1CCN(C)C1)OCCN(C)Cc1c(cnn1C)-c1ccc3[nH]nc(c3c1)/C=C/2 (stereo not shown) NO

Is the recorded value of pIC50 equal to or greater than 8 for this compound? `C[C@H]1CN(C)Cc2c(c(OCC#N)nn2CCO)/C=C/c2n[nH]c3ccc(cc23)-c2cnn(C)c2O1` YES

Is the recorded value of pIC50 equal to or greater than 8 for this compound? `Cc1c2c(nn1CCN1CCCC1)CN(C)C[C@@H](C)Oc1c(cnn1C)-c1ccc3[nH]nc(c3c1)/C=C/2` NO

Is the recorded value of pIC50 equal to or greater than 8 for this compound? `CCOc1nn(C)c2c1/C=C/c1n[nH]c3ccc(cc13)-c1cnn(C)c1O[C@@H]1CCCN(C2)C1` NO
